- Study System: Human serotonin 5-HT6 receptor (Homo sapiens, UniProt P50406)
- Sequence (P50406 whole entry): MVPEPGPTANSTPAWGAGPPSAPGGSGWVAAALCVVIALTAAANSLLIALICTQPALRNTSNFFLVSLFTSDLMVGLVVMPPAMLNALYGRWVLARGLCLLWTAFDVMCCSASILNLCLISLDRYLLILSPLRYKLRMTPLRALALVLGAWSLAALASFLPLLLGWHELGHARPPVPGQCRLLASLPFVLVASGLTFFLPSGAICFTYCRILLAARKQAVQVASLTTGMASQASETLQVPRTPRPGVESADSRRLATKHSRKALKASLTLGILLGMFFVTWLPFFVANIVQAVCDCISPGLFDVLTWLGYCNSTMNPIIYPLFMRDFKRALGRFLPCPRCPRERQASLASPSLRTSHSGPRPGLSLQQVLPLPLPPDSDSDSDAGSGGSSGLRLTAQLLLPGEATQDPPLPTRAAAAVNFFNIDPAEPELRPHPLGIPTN
- Measurement Protocol: [3H]LSD binding assay on cloned 5-HT6 receptor
Quantity Name: IC50 (nM)

Compound: CN1CCN(c2cc(Cl)cc3c2S(=O)(=O)N(C)C(=O)N3C)CC1
Quantity Name: IC50
Result Units: nM
Readout Number: 745

---

- Study System: 5-HT2a (Homo sapiens, UniProt P28223)
- Construct: purchased Euroscreen/BioSignal Packard Inc
- Sequence (P28223 whole entry): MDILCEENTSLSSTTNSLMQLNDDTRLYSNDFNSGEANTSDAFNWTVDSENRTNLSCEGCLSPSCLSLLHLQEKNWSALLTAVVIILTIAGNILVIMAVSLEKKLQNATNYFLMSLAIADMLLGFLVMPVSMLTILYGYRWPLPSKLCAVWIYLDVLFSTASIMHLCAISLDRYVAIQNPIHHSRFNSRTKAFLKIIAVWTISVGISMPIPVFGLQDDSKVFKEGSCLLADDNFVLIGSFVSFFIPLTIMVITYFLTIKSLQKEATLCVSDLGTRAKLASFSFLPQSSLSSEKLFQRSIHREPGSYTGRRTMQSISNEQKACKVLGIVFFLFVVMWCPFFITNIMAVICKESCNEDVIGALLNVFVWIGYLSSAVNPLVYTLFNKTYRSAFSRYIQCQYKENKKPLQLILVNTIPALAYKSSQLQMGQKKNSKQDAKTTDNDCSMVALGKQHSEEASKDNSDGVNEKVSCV
- Measurement Protocol: Radioligand binding, 5-HT receptor family: 5-HT2a ([3H]Ketanserin)
- Applied Conditions: CHO-K1 human recombinant receptor, [3H]Ketanserin 1 nM; read-out: Binding affinity, IC50 (nM), 5-HT2a
Could you mark each record t if its IC50 falls strictly under 400 nM, and f if it equals or exceeds it?

Molecule: CCN1C(=O)N(Cc2ccccc2)c2cc(Cl)cc(N3CCN(C)CC3)c2S1(=O)=O [Example 33]
Category: t
--
Molecule: COc1ccc(CN2C(=O)N(Cc3ccccc3)c3cc(Cl)cc(N4CCN(C)CC4)c3S2(=O)=O)cc1 [Example 18]
Category: f
--
Molecule: CN1CCN(c2cc(Cl)cc3c2S(=O)(=O)N(Cc2ccc(Cl)cc2)C(=O)N3Cc2ccccc2)CC1 [Example 7]
Category: f
--
Molecule: C[C@@H](c1ccccc1)N1C(=O)N(Cc2ccccc2)c2cc(Cl)cc(N3CCN(C)CC3)c2S1(=O)=O [Example 26]
Category: t
--
Molecule: Cc1cc(C)cc(CCCN2C(=O)N(Cc3ccccc3)c3cc(Cl)cc(N4CCN(C)CC4)c3S2(=O)=O)c1 [Example 38]
Category: t
--
Molecule: CCCCCCCCN1C(=O)N(Cc2ccccc2)c2cc(Cl)cc(N3CCN(C)CC3)c2S1(=O)=O [Example 39]
Category: f
--
Molecule: COc1ccc(CN2C(=O)N(Cc3ccccc3)c3cc(Cl)cc(N4CCNCC4)c3S2(=O)=O)cc1 [Example 53]
Category: f
--
Molecule: CN1CCN(c2cc(Cl)cc3c2S(=O)(=O)N(Cc2ccccc2F)C(=O)N3Cc2ccccc2)CC1 [Example 2]
Category: t
--
Molecule: COc1cccc(N2C(=O)N(Cc3ccccc3)c3cc(Cl)cc(N4CCNCC4)c3S2(=O)=O)c1 [Example 62]
Category: f
--
Molecule: CCCN1C(=O)N(Cc2ccccc2)c2cc(Cl)cc(N3CCN(C)CC3)c2S1(=O)=O [Example 34]
Category: f
--
Molecule: CN1CCN(c2cc(Cl)cc3c2S(=O)(=O)N(c2ccccc2)C(=O)N3Cc2ccccc2)CC1 [Example 27]
Category: f
--
Molecule: COc1cccc(CN2C(=O)N(Cc3ccccc3)c3cc(Cl)cc(N4CCN(C)CC4)c3S2(=O)=O)c1 [Example 17]
Category: t
--
Molecule: CN1CCN(c2cc(Cl)cc3c2S(=O)(=O)N(Cc2cccc4ccccc24)C(=O)N3Cc2ccccc2)CC1 [Example 41]
Category: t
--
Molecule: C[C@@H](c1ccccc1)N1C(=O)N(Cc2ccccc2)c2cc(Cl)cc(N3CCNCC3)c2S1(=O)=O [Example 59]
Category: t

---

Compound: COc1ccc(N2C(=O)N(Cc3ccccc3)c3cc(Cl)cc(N4CCN(C)CC4)c3S2(=O)=O)cc1 [Example 30]
melting point: 115 to 116 °C
--
Compound: CN1CCN(c2cc(Cl)cc3c2S(=O)(=O)N(Cc2cccc(Cl)c2)C(=O)N3Cc2ccccc2)CC1 [Example 6]
melting point: 87 to 88 °C
--
Compound: CN1CCN(c2cc(Cl)cc3c2S(=O)(=O)N(Cc2cccc4ccccc24)C(=O)N3Cc2ccccc2)CC1 [Example 41]
melting point: 114 to 115 °C
--
Compound: Cc1cccc(CN2C(=O)N(Cc3ccccc3)c3cc(Cl)cc(N4CCN(C)CC4)c3S2(=O)=O)c1 [Example 14]
melting point: 188 to 191 °C
--
Compound: CN1CCN(c2cc(Cl)cc3c2S(=O)(=O)N(Cc2ccc(I)cc2)C(=O)N3Cc2ccccc2)CC1 [Example 12]
melting point: 110 to 111 °C
--
Compound: CCCCCCCCN1C(=O)N(Cc2ccccc2)c2cc(Cl)cc(N3CCN(C)CC3)c2S1(=O)=O [Example 39]
melting point: 88 to 91 °C
--
Compound: O=C1N(Cc2ccccc2)c2cc(Cl)cc(N3CCNCC3)c2S(=O)(=O)N1Cc1cccc(O)c1 [Example 54]
melting point: 230 to 231 °C

---

Catalogue of IC50 values
- Study System: Human serotonin 5-HT6 receptor (Homo sapiens)
- Measurement Protocol: [3H]LSD binding assay on cloned 5-HT6 receptor
- Applied Conditions: Binding affinity, IC50 (nM), 5-HT6, Table 4

Compound: Cc1cc(C)cc(CCCN2C(=O)N(Cc3ccccc3)c3cc(Cl)cc(N4CCN(C)CC4)c3S2(=O)=O)c1
IC50: 0.6 nM
--
Compound: CN1CCN(c2cc(Cl)cc3c2S(=O)(=O)N(Cc2ccccc2)C(=O)N3Cc2ccccc2)CC1
IC50: 1.9 nM
--
Compound: O=C1N(Cc2ccccc2)c2cc(Cl)cc(N3CCNCC3)c2S(=O)(=O)N1Cc1ccccc1
IC50: 1 nM
--
Compound: CN1CCN(c2cc(Cl)cc3c2S(=O)(=O)N(Cc2cccc(F)c2)C(=O)N3Cc2ccccc2)CC1
IC50: 0.7 nM
--
Compound: COc1ccc(CN2C(=O)N(Cc3ccccc3)c3cc(Cl)cc(N4CCN(C)CC4)c3S2(=O)=O)cc1
IC50: 3.6 nM
--
Compound: C[C@@H](c1ccccc1)N1C(=O)N(Cc2ccccc2)c2cc(Cl)cc(N3CCNCC3)c2S1(=O)=O
IC50: 3 nM
--
Compound: COc1cccc(N2C(=O)N(Cc3ccccc3)c3cc(Cl)cc(N4CCNCC4)c3S2(=O)=O)c1
IC50: 10.2 nM
--
Compound: CN1CCN(c2cc(Cl)cc3c2S(=O)(=O)N(Cc2ccccc2F)C(=O)N3Cc2ccccc2)CC1
IC50: 1.9 nM
--
Compound: COc1ccc(CN2C(=O)N(Cc3ccccc3)c3cc(Cl)cc(N4CCNCC4)c3S2(=O)=O)cc1
IC50: 11.8 nM
--
Compound: COc1cccc(CN2C(=O)N(Cc3ccccc3)c3cc(Cl)cc(N4CCN(C)CC4)c3S2(=O)=O)c1
IC50: 10.9 nM
--
Compound: CN1CCN(c2cc(Cl)cc3c2S(=O)(=O)N(Cc2ccccc2Cl)C(=O)N3Cc2ccccc2)CC1
IC50: 1.3 nM
--
Compound: CN1CCN(c2cc(Cl)cc3c2S(=O)(=O)N(Cc2cccc4ccccc24)C(=O)N3Cc2ccccc2)CC1
IC50: 0.8 nM
--
Compound: CCCCCCCCN1C(=O)N(Cc2ccccc2)c2cc(Cl)cc(N3CCN(C)CC3)c2S1(=O)=O
IC50: 1.8 nM
--
Compound: C[C@H](c1ccccc1)N1C(=O)N(Cc2ccccc2)c2cc(Cl)cc(N3CCNCC3)c2S1(=O)=O
IC50: 2.3 nM
--
Compound: C[C@@H](c1ccccc1)N1C(=O)N(Cc2ccccc2)c2cc(Cl)cc(N3CCN(C)CC3)c2S1(=O)=O
IC50: 2.4 nM

---

- Study System: 5-HT7 (Homo sapiens, UniProt P34969)
- Construct: purchased Euroscreen/BioSignal Packard Inc
- Sequence (P34969 whole entry): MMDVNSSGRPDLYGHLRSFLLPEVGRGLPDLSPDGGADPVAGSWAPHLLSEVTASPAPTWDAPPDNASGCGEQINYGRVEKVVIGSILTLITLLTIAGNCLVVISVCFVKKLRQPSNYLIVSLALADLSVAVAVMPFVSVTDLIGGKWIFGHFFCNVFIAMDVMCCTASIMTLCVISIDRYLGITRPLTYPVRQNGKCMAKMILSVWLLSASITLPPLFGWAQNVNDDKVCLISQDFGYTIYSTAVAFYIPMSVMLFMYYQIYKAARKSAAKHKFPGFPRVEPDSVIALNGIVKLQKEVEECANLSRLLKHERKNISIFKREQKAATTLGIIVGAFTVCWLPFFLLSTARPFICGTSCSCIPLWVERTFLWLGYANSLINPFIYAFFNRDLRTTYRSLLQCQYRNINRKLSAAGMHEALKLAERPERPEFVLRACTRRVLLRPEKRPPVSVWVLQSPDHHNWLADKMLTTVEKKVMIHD
- Measurement Protocol: Radioligand binding, 5-HT receptor family: 5-HT7 ([3H]LSD)
- Applied Conditions: CHO-K1 human recombinant receptor, [3H]LSD 3 nM; read-out: Binding affinity, IC50 (nM), 5-HT7
Quantity Name: IC50 (nM)

Compound: C[C@H](c1ccccc1)N1C(=O)N(Cc2ccccc2)c2cc(Cl)cc(N3CCN(C)CC3)c2S1(=O)=O
Censoring Operator: =
Readout Number: 8560

Compound: CN1CCN(c2cc(Cl)cc3c2S(=O)(=O)N(Cc2cccc(F)c2)C(=O)N3Cc2ccccc2)CC1
Censoring Operator: >
Readout Number: 10000

Compound: CN1CCN(c2cc(Cl)cc3c2S(=O)(=O)N(c2ccccc2)C(=O)N3Cc2ccccc2)CC1
Censoring Operator: >
Readout Number: 10000

Compound: C[C@@H](c1ccccc1)N1C(=O)N(Cc2ccccc2)c2cc(Cl)cc(N3CCN(C)CC3)c2S1(=O)=O
Censoring Operator: =
Readout Number: 8250

---

Catalogue of IC50 values
- Study System: 5-HT7 (Homo sapiens)
- Construct: purchased Euroscreen/BioSignal Packard Inc
- Measurement Protocol: Radioligand binding, 5-HT receptor family: 5-HT7 ([3H]LSD)
- Applied Conditions: CHO-K1 human recombinant receptor, [3H]LSD 3 nM; read-out: Binding affinity, IC50 (nM), 5-HT7
Quantity Name: IC50

Compound: C[C@H](c1ccccc1)N1C(=O)N(Cc2ccccc2)c2cc(Cl)cc(N3CCNCC3)c2S1(=O)=O
Quantity Name: IC50
Result: 6390 nM
--
Compound: CN1CCN(c2cc(Cl)cc3c2S(=O)(=O)N(Cc2ccc(Cl)cc2)C(=O)N3Cc2ccccc2)CC1
Quantity Name: IC50
Result: > 10000 nM
--
Compound: C[C@@H](c1ccccc1)N1C(=O)N(Cc2ccccc2)c2cc(Cl)cc(N3CCNCC3)c2S1(=O)=O
Quantity Name: IC50
Result: 2300 nM
--
Compound: CN1CCN(c2cc(Cl)cc3c2S(=O)(=O)N(Cc2ccccc2F)C(=O)N3Cc2ccccc2)CC1
Quantity Name: IC50
Result: > 10000 nM
--
Compound: CCCN1C(=O)N(Cc2ccccc2)c2cc(Cl)cc(N3CCN(C)CC3)c2S1(=O)=O
Quantity Name: IC50
Result: > 10000 nM
--
Compound: COc1cccc(CN2C(=O)N(Cc3ccccc3)c3cc(Cl)cc(N4CCN(C)CC4)c3S2(=O)=O)c1
Quantity Name: IC50
Result: > 10000 nM
--
Compound: CCCCCCCCN1C(=O)N(Cc2ccccc2)c2cc(Cl)cc(N3CCN(C)CC3)c2S1(=O)=O
Quantity Name: IC50
Result: 3170 nM
--
Compound: O=C1N(Cc2ccccc2)c2cc(Cl)cc(N3CCNCC3)c2S(=O)(=O)N1Cc1cccc(O)c1
Quantity Name: IC50
Result: > 10000 nM
